Molecular target: T1, mouse CD36-His overexpressed on stable F293 cells (mouse, UniProt Q08857 1-472)
T1 construct: Gene segment from Sino Biological; also called F293/mCD36; mCD36; not shown: His tag
T1 sequence (Q08857 whole entry): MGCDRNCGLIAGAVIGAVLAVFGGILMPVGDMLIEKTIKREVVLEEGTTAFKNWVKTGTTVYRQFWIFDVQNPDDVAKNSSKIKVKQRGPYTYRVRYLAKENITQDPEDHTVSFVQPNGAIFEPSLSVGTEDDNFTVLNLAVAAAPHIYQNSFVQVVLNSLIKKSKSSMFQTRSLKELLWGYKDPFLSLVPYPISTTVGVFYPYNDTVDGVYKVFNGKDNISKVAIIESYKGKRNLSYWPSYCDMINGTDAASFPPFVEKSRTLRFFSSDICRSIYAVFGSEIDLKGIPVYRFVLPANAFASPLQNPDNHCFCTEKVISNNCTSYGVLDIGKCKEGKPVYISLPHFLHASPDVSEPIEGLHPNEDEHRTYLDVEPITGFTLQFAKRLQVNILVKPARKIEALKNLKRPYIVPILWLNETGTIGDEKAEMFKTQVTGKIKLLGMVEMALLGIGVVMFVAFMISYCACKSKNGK
Assay: flow cytometry, F293 cells overexpressing mouse CD36
Property: EC50 (mg/L)
Reply numerically in mg/L, unit not repeated.

- Binder: "117_57DE (antibody, V domains shown, full-length IgG, human kappa) VH: EVQLVESGGGLVQPGGSLRLSCAASGFTISSFGIHWVRQAPGKGLEWVAWIAPYGGDEYYADSVKGRFTISADTSKNTAYLQMNSLRAEDTAVYYCARSFFGYFDYWGQGTLVTVSS VL: DIQMTQSPSSLSASVGDRVTITCRASQDVSNWVAWYQQKPGKAPKLLISYATSLYSGVPSRFSGSGSGTDFTLTISSLQPEDFATYYCQQHSNAPLTFGQGTKVEIKR"
  EC50 (mg/L): 0.447
- Binder: "117_57D (antibody, V domains shown, full-length IgG, human kappa) VH: EVQLVESGGGLVQPGGSLRLSCAASGFTISSFGIHWVRQAPGKGLEWVAWIAPYGGDTYYADSVKGRFTISADTSKNTAYLQMNSLRAEDTAVYYCARSFFGYFDYWGQGTLVTVSS VL: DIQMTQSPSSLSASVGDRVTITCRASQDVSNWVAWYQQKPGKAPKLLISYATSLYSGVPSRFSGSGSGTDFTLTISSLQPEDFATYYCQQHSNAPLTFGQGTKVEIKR"
  EC50 (mg/L): 0.309

Now consider the entry below.
## Task Field request: EC50 | item: 117_30DA (antibody, V domains shown, full-length IgG, human kappa) VH: EVQLVESGGGLVQPGGSLRLSCAASGFTIDAFGIHWVRQAPGKGLEWVAWIAPYGGYTYYADSVKGRFTISADTSKNTAYLQMNSLRAEDTAVYYCARSFFGYFDYWGQGTLVTVSS VL: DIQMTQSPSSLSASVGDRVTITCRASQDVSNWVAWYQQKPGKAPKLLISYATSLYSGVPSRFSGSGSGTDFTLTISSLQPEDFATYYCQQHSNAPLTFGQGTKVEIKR
## Result 0.488

Value source: patent US20250206837A1
